# SYSTEM TESTED: T1, RBFOX1 RRM (Homo sapiens, UniProt Q9NWB1 109-208)
# T1 sequence: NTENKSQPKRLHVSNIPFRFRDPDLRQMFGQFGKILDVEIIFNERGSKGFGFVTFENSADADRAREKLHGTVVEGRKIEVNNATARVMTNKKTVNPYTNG
# PROCEDURE DETAILS: EMSA; HiTS-Eq, 1 nM pool, 10 min; buffer printed only for the single-RNA assays: 10 mM Tris pH 7.5, 150 mM NaCl, 3.4 mM EDTA, 0.001% NP-40, 30 C
# PROTOCOL CONDITIONS: tags: His6 N-terminal (pET28a); label: 5' 32P
Whole data set: some 16,000 sequences, median “ka relative to ugcaugu” near 0.0091, cut for the highest 2% near 0.032. The entries come from a sample that favours the highest values as a whole.
Below, each entry is listed with its recorded binding signal.
MEASUREMENT LABEL: binding signal

INSERT INTO assay_data (binder, reported_measurement) VALUES
  ('UGGGUCC (DNA:RNA) RNA: GGGAGACCGGAAUUCAGAUUGUCCUGGGUCCUUAAAUCCCGUCGUAGCCACCA DNA 1: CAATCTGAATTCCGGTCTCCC DNA 2: TGGTGGCTACGACGGGATT', '0.0332 KA relative to UGCAUGU'),
  ('CUGGUCC (DNA:RNA) RNA: GGGAGACCGGAAUUCAGAUUGUCCCUGGUCCUUAAAUCCCGUCGUAGCCACCA DNA 1: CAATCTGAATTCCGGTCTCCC DNA 2: TGGTGGCTACGACGGGATT', '0.0227 KA relative to UGCAUGU'),
  ('UCGCAGG (DNA:RNA) RNA: GGGAGACCGGAAUUCAGAUUGUCCUCGCAGGUUAAAUCCCGUCGUAGCCACCA DNA 1: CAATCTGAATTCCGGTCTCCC DNA 2: TGGTGGCTACGACGGGATT', '0.0168 KA relative to UGCAUGU'),
  ('GAGCACG (DNA:RNA) RNA: GGGAGACCGGAAUUCAGAUUGUCCGAGCACGUUAAAUCCCGUCGUAGCCACCA DNA 1: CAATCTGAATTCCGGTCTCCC DNA 2: TGGTGGCTACGACGGGATT', '0.0394 KA relative to UGCAUGU'),
  ('CAUUUGG (DNA:RNA) RNA: GGGAGACCGGAAUUCAGAUUGUCCCAUUUGGUUAAAUCCCGUCGUAGCCACCA DNA 1: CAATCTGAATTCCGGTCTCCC DNA 2: TGGTGGCTACGACGGGATT', '0.014 KA relative to UGCAUGU'),
  ('GAGCAUG (DNA:RNA) RNA: GGGAGACCGGAAUUCAGAUUGUCCGAGCAUGUUAAAUCCCGUCGUAGCCACCA DNA 1: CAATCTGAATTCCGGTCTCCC DNA 2: TGGTGGCTACGACGGGATT', '0.713 KA relative to UGCAUGU'),
  ('UGGGUCA (DNA:RNA) RNA: GGGAGACCGGAAUUCAGAUUGUCCUGGGUCAUUAAAUCCCGUCGUAGCCACCA DNA 1: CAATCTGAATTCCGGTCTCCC DNA 2: TGGTGGCTACGACGGGATT', '0.0232 KA relative to UGCAUGU'),
  ('GAGCACC (DNA:RNA) RNA: GGGAGACCGGAAUUCAGAUUGUCCGAGCACCUUAAAUCCCGUCGUAGCCACCA DNA 1: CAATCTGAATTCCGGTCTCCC DNA 2: TGGTGGCTACGACGGGATT', '0.00895 KA relative to UGCAUGU'),
  ('GAGAGCA (DNA:RNA) RNA: GGGAGACCGGAAUUCAGAUUGUCCGAGAGCAUUAAAUCCCGUCGUAGCCACCA DNA 1: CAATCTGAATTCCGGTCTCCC DNA 2: TGGTGGCTACGACGGGATT', '0.0187 KA relative to UGCAUGU');

Numbers sourced from paper PMC9911399.
